Tested on: NOMO1
Assay: cell viability relative to DMSO control; higher = less cytotoxic
Settings: RPMI 5 mM glucose + 10% dialyzed FBS; 48 h; 0.19 µM
quantity kind: cell viability (%)
Numbers only, in %.

# example entries with known answers
COc1nc(-c2ccc3c(c2)OCO3)n(-c2ccc(NC(=O)CSc3ccccc3)cc2)n1 : 106
COC[C@H](NC(=O)c1cnc(C)s1)C(=O)N[C@@H](COC)C(=O)N[C@@H](Cc1ccccc1)C(=O)[C@@]1(C)CO1 : 88.1
CCNC(=O)C[C@@H]1\N=C(C2=CC=C(Cl)C=C2)/C3=C(C=CC(=C3)OC)[N]4C(=NN=C14)C : 112
Cc1ccc(NC(=O)c2ccc(CN3CCN(C)CC3)cc2)cc1Nc1nccc(-c2cccnc2)n1 : 103
CC/1=C/N([C@@H]2C[C@@H](O)[C@H](CO)O2)C(=O)NC1=O : 87.7
O=C(O)[C@H](Cc1c[nH]c2ccccc12)N1C(=O)c2ccccc2C1=O : 94.1
COc1cc(N2CCC(O)CC2)ccc1Nc1cc(Nc2ccccc2[S+](=O)([O-])C(C)C)c2cc[nH]c2n1 : 87.8
CC(C)C[C@H](CN)CC(=O)O : 97.6

Here are 5 molecules. What values of cell viability were reported for them?
1. Clc1cccc(-c2nnnn2Cc2cccnc2)c1Cl
2. CSC1=CC(=CC=C1)NC2=NC3=C(C=N2)/C=C(C(=O)N3C)/C4=C(Cl)C=CC=C4Cl
3. CN(C)Cc1ccc(-c2nc3cccc4c3n2CCNC4=O)cc1
4. CC1(C)[C@@H](O[C@H]2O[C@H](C(=O)O)[C@@H](O)[C@H](O)[C@H]2O[C@@H]2O[C@H](C(=O)O)[C@@H](O)[C@H](O)[C@H]2O)CC[C@]2(C)[C@H]3C(=O)C=C4[C@@H]5C[C@@](C)(C(=O)O)CC[C@]5(C)CC[C@@]4(C)[C@]3(C)CC[C@@H]12
5. Cc1c[nH]c(/C=C2\C(=O)Nc3ccccc32)c1CCC(=O)O

Result:
[83.2, 118, 119, 145, 111]

Here are 3 molecules. What values of cell viability were reported for them?
1. COC(=O)N1CCN(Cc2cccc(NC(=O)Nc3ccc(C)nc3)c2F)CC1
2. Nc1nc(-c2nn(Cc3ccccc3F)c3ncccc23)nc(N)c1N1CCOCC1
3. CC#C[C@]1(O)CC[C@H]2[C@@H]/3CCC/4=C/C(=O)CCC4=C3[C@H](C[C@]12C)C5=CC=C(C=C5)N(C)C

Result:
1. 93.5
2. 106
3. 90.3

----------
Test system: SEM cells
Test: cell viability relative to DMSO control; higher = less cytotoxic
Conditions: RPMI 5 mM glucose + 10% dialyzed FBS; 48 h; 0.00234 µM
quantity kind: cell viability
# answer = value followed by unit

# example entries with known answers
CN1CCCN(C(=O)c2cccc(-c3ccc(/C=C4/C(=O)Nc5ccc(Cl)cc54)o3)c2)CC1 : 108%
ClC1=CC=C(CCCOC/2=N/NC(=O)C(=C2NCC3=CN=CC=C3)/Br)C=C1 : 133%
COc1cc(N2CCC(O)CC2)ccc1Nc1cc(Nc2ccccc2[S+](=O)([O-])C(C)C)c2cc[nH]c2n1 : 94.6%
CC1SC/2=C(C(O)=O)/C(=O)C3=CC(=C(C=C3N12)N4CCN(CC4)C\C5=C(C)\OC(=O)O5)F (stereo not drawn) : 125%
COc1cc2nccc(Oc3ccc(NC(=O)C4(C(=O)Nc5ccc(F)cc5)CC4)cc3)c2cc1OC : 71.6%

Here are 3 molecules. What values of cell viability were reported for them?
1. COc1ccc(Cc2nccc3cc(OC)c(OC)cc23)cc1OC
2. COc1cc(N2CCC(C(N)=O)CC2)ccc1Nc1nc(N)c(Cl)c(Nc2ccccc2[S+](=O)([O-])C(C)C)n1
3. NC(=O)c1ccc(-c2nc(-c3ccc4c(c3)OCCO4)c(-c3ccccn3)[nH]2)cc1

Result:
1: 107%; 2: 85.1%; 3: 126%

----------
Test system: P12-Ichikawa
Assay: cell viability relative to DMSO control; higher = less cytotoxic
Settings: RPMI 5 mM glucose + 10% FBS; 48 h; 0.19 µM
quantity kind: cell viability (%)
Numbers only, in %.

# example entries with known answers
O=C/1\C=C(/OC(=C1)/C2=C3SC4=C(SC3=CC=C2)C=CC=C4)N5CCOCC5 : 100
COc1cc(N2CCC(O)CC2)ccc1Nc1cc(Nc2ccccc2[S+](=O)([O-])C(C)C)c2cc[nH]c2n1 : 88

Next up:
Request: Could you tell me which cell viability is on file for `O=C(O)c1ccc2cc(-c3ccc(O)c(C45CC6CC(CC(C6)C4)C5)c3)ccc2c1` ?
Result: 96.9

----------
System: P12-Ichikawa
Experiment: cell viability relative to DMSO control; higher = less cytotoxic
Settings: RPMI 5 mM glucose + 10% dialyzed FBS; 48 h; 0.000781 µM
quantity kind: cell viability (%)
Answers are plain numbers, in %.

# example entries with known answers
CN1C(=O)\C(=C/C(=C1/NC2=C(F)C=C(I)C=C2)C(=O)NOCCO)C : 94.6
Cc1cc(Nc2ncc(Cl)c(Nc3ccccc3[S+](=O)([O-])C(C)C)n2)c(OC(C)C)cc1C1CCNCC1 : 117
Nc1nc(-c2nn(Cc3ccccc3F)c3ncccc23)nc(N)c1N1CCOCC1 : 86.1
CC(=O)N1CCN(c2ccc(OCc3nn(C)c(C)c3-c3cccc4c(CCCOc5cc(C)c(Cl)c(C)c5)c(C(=O)O)n(Cc5cccnc5)c34)cc2)CC1 : 104
CCNC(=O)C[C@@H]1\N=C(C2=CC=C(Cl)C=C2)/C3=C(C=CC(=C3)OC)[N]4C(=NN=C14)C : 115
O=C1c2c(O)cccc2[C@H]([C@@H]2O[C@H](CO)[C@@H](O)[C@H](O)[C@H]2O)c2cc(CO)cc(O)c21 : 91

Here are 2 molecules. What values of cell viability were reported for them?
1. CC(C)C[C@H](CN)CC(=O)O
2. CNC(=O)[C@H](Cc1ccccc1)NC(=O)[C@H](CC(C)C)[C@H](CSc1cccs1)C(=O)NO

Result:
1. 103
2. 85.3

----------
Test system: SEM cells
Test: cell viability relative to DMSO control; higher = less cytotoxic
Conditions: RPMI 5 mM glucose + 10% FBS; 48 h; 0.000781 µM
Exercise: for every item that follows, state its recorded cell viability.
# answer = value followed by unit

# example entries with known answers
COc1cc2c(N3CCN(C(=O)Nc4ccc(OC(C)C)cc4)CC3)ncnc2cc1OCCCN1CCCCC1 : 89.5%
O=C(NC1CCOCC1)c1ccc(-c2cc(-c3c[nH]nc3-c3ccccn3)ccn2)cc1 : 124%
CC/1=C/N([C@@H]2C[C@@H](O)[C@H](CO)O2)C(=O)NC1=O : 113%
CC(C)(C)OC(=O)CN(Cc1ccc(Cl)cc1)Cc1ccc([N+](=O)[O-])s1 : 98.2%

Next up:
Request: Could you tell me which cell viability is on file for `CN1CCCN(C(=O)c2cccc(-c3ccc(/C=C4/C(=O)Nc5ccc(Cl)cc54)o3)c2)CC1` ?
Result: 90.2%

----------
Test system: P12-Ichikawa
Assay: cell viability relative to DMSO control; higher = less cytotoxic
Conditions: RPMI 5 mM glucose + 10% FBS; 48 h; 1.71 µM
quantity kind: cell viability (%)
Numbers only, in %.

# example entries with known answers
Cc1ccc(NC(=O)C2(c3ccc4c(c3)OC(F)(F)O4)CC2)nc1-c1cccc(C(=O)O)c1 : 16.1
COc1cc(N2CCC(O)CC2)ccc1Nc1cc(Nc2ccccc2[S+](=O)([O-])C(C)C)c2cc[nH]c2n1 : 81.8
COc1cc2nccc(Oc3ccc(NC(=O)C4(C(=O)Nc5ccc(F)cc5)CC4)cc3)c2cc1OC : 114
COc1cc(N2CCC(C(N)=O)CC2)ccc1Nc1nc(N)c(Cl)c(Nc2ccccc2[S+](=O)([O-])C(C)C)n1 : 95.9
COCCOC(=O)C/1=C(C)/NC/2=C(C1C3=CC=CC(=C3)O)/C(=O)CC(C2)C4=C(OC)C=CC=C4 (stereo not drawn) : 101

Here are 2 compounds. What values of cell viability were reported for them?
1. Nc1nc(-c2nn(Cc3ccccc3F)c3ncccc23)nc(N)c1N1CCOCC1
2. COC(=O)N1CCN(Cc2cccc(NC(=O)Nc3ccc(C)nc3)c2F)CC1

Result:
1. 109
2. 81.4

Request: Any idea what cell viability came out for `ClC1=CC=C(CCCOC/2=N/NC(=O)C(=C2NCC3=CN=CC=C3)/Br)C=C1` on P12-Ichikawa?
Result: 112

----------
System: P12-Ichikawa
Assay: cell viability relative to DMSO control; higher = less cytotoxic
Details: RPMI 5 mM glucose + 10% dialyzed FBS; 48 h; 0.000781 µM
quantity kind: cell viability (%)
Numbers only, in %.

CC(C)OC(=O)CCC/C=C\C[C@@H]1[C@@H](/C=C/[C@@H](O)COc2cccc(C(F)(F)F)c2)[C@H](O)C[C@@H]1O : 112
COCCOC(=O)C/1=C(C)/NC/2=C(C1C3=CC=CC(=C3)O)/C(=O)CC(C2)C4=C(OC)C=CC=C4 (centres undefined) : 94.8
Nc1ccccc1NC(=O)c1ccc(CNc2nccc(-c3cccnc3)n2)cc1 : 109

Next up:
Request: Could you tell me which cell viability is on file for `O=C(O)[C@H](Cc1c[nH]c2ccccc12)N1C(=O)c2ccccc2C1=O` ?
Result: 91.2
